tested on: SK-MEL-5; test: NCI tumour cell line growth inhibition, 48 h
Active and inactive are the calls of the source. Rule as the data show it: active = GI50 up to about 1.1 µM and inactive = higher.
assay_endpoint: GI50

• c1ccc2c(c1)cc1n2CC2CN=NC12 (stereo not given) = > 100 µM (inactive)
• COc1cc2ccnc(-c3n[nH]c4cc(OC)c(OC)cc34)c2cc1OC = > 100 µM (inactive)
• Cc1csc2nc(-c3ccc([N+](=O)[O-])cc3)c(/C=N/N=C(N)N)n12 = 1.91 µM (inactive)
• C[C@]12CCc3nn(-c4ccccc4)nc3C1CC[C@@H]1C2CC[C@]2(C)C(=O)CCC12 (stereo not given in full) = > 100 µM (inactive)
• O=C(O)C1CCCCC1c1c2ccc(=O)cc-2oc2cc(O)ccc12 (stereo not given) = 36.2 µM (inactive)
